I'd be grateful if you could share measured growth for these entries.
# Test system: SNB-75 CNS
# Experimental details: NCI-60 one-dose screen, 48 h (100 = growth as untreated, 0 = no growth, -100 = all killed)
# Condition details: 10 µM unless noted
This is part of a sample that, as a whole, favours compounds with a hit. Of some 83,000 tested, about 20% had one in any assay.
Numbers only, in %.

>>> observed_measurement("O=C1c2c(c3c4cccnc4[nH]c3c3ccc4ccccc4c23)C(=O)N1O")
101
>>> observed_measurement("C#C[C@]1(O)CC[C@H]2[C@@H]3CC=C4c5sc(-c6cccc(C)c6)nc5CC[C@]4(C)[C@H]3CC[C@@]21C")
13.8
>>> observed_measurement("COC(=O)CNC(=O)c1ccc(NC(=O)c2[nH]c(C)c(Cl)c2Cl)c(O[C@H]2CCNC2)c1")
94.8

// query Bench note: what growth did C=C(C)[C@@H]1CC[C@]2(C#N)CC[C@]3(C)[C@H](CC[C@@H]4[C@@]5(C)CCCNC(C)(C)[C@@H]5CC[C@]43C)[C@@H]12 show?
// result 83.9
